# System: T47D cells expressing mutant PI3Ka (H1047R)
# procedure-text: In vitro cell proliferation, T47D cells (CellTiter-Glo)
# Assay type: cell-based
# condition-context: inhibition of proliferation, 72 hours, read-out: Avg T-47D EC50
pEC50: −log10 of the molar value.
We begin with a simple list: items and their reported pEC50.
measurement-name: pEC50

• Cc1cc([C@@H](C)Nc2ccc(F)cc2C(=O)O)c2cc(N3CCN(CC(F)(F)F)CC3)n(C)c(=O)c2c1 = 6.30 to 9.00
• Cc1cc(C(C)Nc2ccccc2C(=O)O)c2cc(N3CCN(C(=O)OC(C)C)CC3)n(C)c(=O)c2c1 (single isomer, unassigned) [Example 149] = 6.30 to 9.00
• Cc1cc([C@@H](C)Nc2ccccc2C(=O)O)c2cc(N3CCC(C)(C#N)CC3)n(C)c(=O)c2c1 = 6.30 to 9.00
• CCN1CCN(c2cc3c([C@@H](C)Nc4ccccc4C(=O)O)cc(C)cc3c(=O)n2C)CC1C(F)(F)F (single isomer, unassigned) = 6.30 to 9.00
• Cc1cc(C(C)Nc2ccccc2C(=O)O)c2cc(N3CCC4(CCN(CC(F)(F)F)CC4)CC3)n(C)c(=O)c2c1 (single isomer, unassigned) [Example 111] = 6.30 to 9.00
• Cc1cc([C@@H](C)Nc2ccc(F)c(F)c2C(=O)O)c2cc(N3CCN(CC(F)(F)F)CC3)n(C)c(=O)c2c1 = 6.30 to 9.00
• Cc1cc(C(C)Nc2ccccc2C(=O)O)c2cc(N3CCC4(CCN(CC(F)(F)F)CC4)CC3)n(C)c(=O)c2c1 (stereo not shown) [Example 91] = 6.30 to 9.00
• Cc1cc(C(C)Nc2ccccc2C(=O)O)c2cc(N3CCC4(CCN(CC(F)(F)F)C4)CC3)n(C)c(=O)c2c1 (single isomer, unassigned) [Example 97] = 4.82 to 5.70
• Cc1cc(C(C)Nc2ccccc2C(=O)O)c2cc(N3Cc4cccnc4C3)n(C)c(=O)c2c1 (single isomer, unassigned) [Example 19] = 6.30 to 9.00
• C[C@@H](Nc1ccccc1C(=O)O)c1cc(F)cc2c(=O)n(C)c(C3CC3(F)F)cc12 (single isomer, unassigned) [Example 481] = 5.70 to 6.30
• C#Cc1ccc(N[C@H](C)c2cc(C)cc3c(=O)n(C)c(-c4cnc(C(F)(F)F)nc4)cc23)c(C(=O)O)n1 = 6.30 to 9.00
• Cc1cc([C@@H](C)Nc2cccc(F)c2C(=O)O)c2cc(C3CC3(F)F)n(C)c(=O)c2c1 (single isomer, unassigned) [Example 420] = 4.82 to 5.70
• Cc1cc(C(C)Nc2ccccc2C(=O)O)c2cc(N3CC4(C3)CC(F)(F)C4)n(C)c(=O)c2c1 (single isomer, unassigned) [Example 81] = 5.70 to 6.30

====

# Test system: phosphorylation of AKT (pAKT) in T47D cells expressing mutant PI3Ka (H1047R)
# procedure-text: In vitro cell pAKT (Ser473) HTRF, T47D cells
# Assay type: cell-based
# condition-context: cellular pAKT, T47D cells, mutant PI3Ka (H1047R), 6 hours; read-out: Avg T-47D IC50
measurement-name: IC50

* CCOc1ccc(-c2cc3c(C(C)Nc4ccccc4C(=O)O)cc(C)cc3c(=O)n2C)cn1 (single isomer, unassigned) [Example 132] | 1 to 500 nM
* Cc1cc(C(C)Nc2ccccc2C(=O)O)c2cc(N3CC(Cl)C3)n(C)c(=O)c2c1 (single isomer, unassigned) [Example 79] | 1 to 500 nM
* Cc1cc(C(C)Nc2ccccc2C(=O)O)c2cc(N3CCN(C)CC3)n(C)c(=O)c2c1 (single isomer, unassigned) [Example 12] | > 15000 nM
* Cc1cc(C(C)Nc2ccccc2C(=O)O)c2cc(N3C[C@@H]4[C@@H](C#N)[C@@H]4C3)n(C)c(=O)c2c1 (stereo partly shown) [Example 14] | 1 to 500 nM
* Cc1cc(C(C)Nc2ccccc2C(=O)O)c2cc(-c3ccc(C)nc3)n(C)c(=O)c2c1 (single isomer, unassigned) [Example 21] | 1 to 500 nM
* Cc1cc(C(C)Nc2ccccc2C(=O)O)c2cc(N3C[C@H]4CN(CC(F)(F)F)C[C@H]4C3)n(C)c(=O)c2c1 (single isomer, unassigned) [Example 30] | > 15000 nM
* COC1(C)CCN(c2cc3c(C(C)Nc4ccccc4C(=O)O)cc(C)cc3c(=O)n2C)CC1 (single isomer, unassigned) [Example 153] | 1 to 500 nM
* CC(Nc1ccccc1C(=O)O)c1cc(F)cc2c(=O)n(C)c(-c3ccc(OC4CC4)nc3)c(F)c12 (stereo not shown) | 1 to 500 nM
* CCN1CCN(c2cc3c([C@@H](C)Nc4ccccc4C(=O)O)cc(C)cc3c(=O)n2C)CC1C(F)(F)F (single isomer, unassigned) | 1 to 500 nM
* CC(Nc1cccc(F)c1C(=O)O)c1cc(F)cc2c(=O)n(C)c(-c3ccc(OCC(F)F)nc3)cc12 (stereo not shown) | 1 to 500 nM
* Cc1cc([C@@H](C)Nc2ccccc2C(=O)O)c2cc(C3CC3(F)F)n(C)c(=O)c2c1 (single isomer, unassigned) | 1 to 500 nM
* C[C@@H](Nc1cccc(F)c1C(=O)O)c1cc(F)cc2c(=O)n(C)c(N3CC(C(F)(F)F)C3)cc12 | 2000 to 15000 nM
* Cc1cc(C(C)Nc2ccccc2C(=O)O)c2cc(N3Cc4cc(F)cc(F)c4C3)n(C)c(=O)c2c1 (single isomer, unassigned) [Example 102] | > 15000 nM

====

We begin with a simple list: items and their reported pEC50.
# System: SKBR3 cells express WT PI3Ka
# procedure-text: In vitro cell proliferation, SKBR3 cells (CellTiter-Glo)
# Format: cell-based
# condition-context: Homo sapiens, SK-BR-3, 72 h, inhibition of proliferation
pEC50: −log10 of the molar value.
measurement-name: pEC50

* Cc1ccc(N2CCN(c3cc4c([C@@H](C)Nc5cccc(F)c5C(=O)O)cc(F)cc4c(=O)n3C)CC2)cn1 | 4.82 to 5.70
* Cc1nc(C(F)(F)F)c(F)cc1-c1ncc(-c2cc3c([C@@H](C)Nc4ccccc4C(=O)O)cc(F)cc3c(=O)n2C)cc1F | 4.82 to 5.70
* Cc1cc([C@@H](C)Nc2ccccc2C(=O)O)c2cc([C@H]3C[C@@H]3C(C)(C)O)n(C)c(=O)c2c1 (single isomer, unassigned) | < 4.82
* Cc1cc([C@@H](C)Nc2ccccc2C(=O)O)c2cc(Cl)n(C)c(=O)c2c1 | < 4.82
* Cc1cc([C@@H](C)Nc2ccccc2C(=O)O)c2cc(OC3CC3)n(C)c(=O)c2c1 | < 4.82
* Cc1cc([C@@H](C)Nc2ccccc2C(=O)O)c2cc(N3CCN(Cc4ccccn4)CC3)n(C)c(=O)c2c1 | 4.82 to 5.70
* COc1ncc(-c2c(F)c3c([C@@H](C)Nc4ccccc4C(=O)O)cc(F)cc3c(=O)n2C)s1 | < 4.82

====

# Test system: phosphorylation of AKT (pAKT) in T47D cells expressing mutant PI3Ka (H1047R)
# procedure-text: In vitro cell pAKT (Ser473) HTRF, T47D cells
# Type: cell-based
# condition-context: Homo sapiens, T47D, 6 h, cellular pAKT, T47D cells, mutant PI3Ka (H1047R), 6 hours; read-out: Avg T-47D IC50
pIC50: −log10 of the molar value.
measurement-name: pIC50

• Cc1cc([C@@H](C)Nc2ccccc2C(=O)O)c2cc(N3C[C@H]4CN(CC(F)(F)F)C[C@H]4C3)n(C)c(=O)c2c1 = 6.30 to 9.00
• Cc1cc([C@@H](C)Nc2ccccc2C(=O)O)c2cc(N3CCN(C(C)C(F)(F)F)CC3)n(C)c(=O)c2c1 (single isomer, unassigned) = 6.30 to 9.00
• C[C@@H](Nc1cccc(F)c1C(=O)O)c1cc(F)cc2c(=O)n(C)c(-c3cc(F)c4nn(C)cc4c3)cc12 = 5.70 to 6.30
• Cc1ccc(N2CCN(c3cc4c([C@@H](C)Nc5ccccc5C(=O)O)cc(F)cc4c(=O)n3C)CC2(C)C)cn1 = 6.30 to 9.00
• Cc1cc([C@@H](C)Nc2ccccc2C(=O)O)c2cc(C3CC3(F)F)n(C)c(=O)c2c1 (single isomer, unassigned) = 6.30 to 9.00
• Cc1cc([C@@H](C)Nc2ccccc2C(=O)O)c2cc(-c3cnc(CF)nc3)n(C)c(=O)c2c1 = 6.30 to 9.00
• Cc1cc([C@@H](C)Nc2ccccc2C(=O)O)c2cc(-c3ccc4c(c3)OC(F)(F)O4)n(C)c(=O)c2c1 = 6.30 to 9.00
• Cc1cc([C@@H](C)Nc2ccccc2C(=O)O)c2cc(N3CCn4c(nnc4C4CC4)C3)n(C)c(=O)c2c1 = 4.82 to 5.70
• COc1cccc(N2CCN(c3cc4c([C@@H](C)Nc5ccccc5C(=O)O)cc(C)cc4c(=O)n3C)CC2)c1 = 6.30 to 9.00
• Cc1cc([C@@H](C)Nc2ccccc2C(=O)O)c2cc(N3CC4CC3CN4CC(F)(F)F)n(C)c(=O)c2c1 (single isomer, unassigned) = 6.30 to 9.00
• Cc1cc(C(C)Nc2ccccc2C(=O)O)c2cc(N3C[C@H]4CCCC[C@@H]4C3)n(C)c(=O)c2c1 (single isomer, unassigned) = < 4.82
• Cc1cc(C(C)Nc2ccccc2C(=O)O)c2cc(N3Cc4cccnc4C3)n(C)c(=O)c2c1 (stereo not shown) = 6.30 to 9.00
• C[C@@H](Nc1ccccc1C(=O)O)c1cc(F)cc2c(=O)n(C)c(N3CCN(CC(F)(F)F)C(C)(C)C3)cc12 = 6.30 to 9.00
